tested on: SKBR3; assay: relative cell number vs DMSO control (72 h) (% of DMSO); higher = less growth inhibition (more cells); conditions: sgRNA knockout: sgNT, 10 nM
Assign YES to entries whose relative cell number meets or exceeds 100; assign NO to the rest.

Molecule | Category Label
COC(=O)Nc1nc2cc(C(=O)c3ccccc3)ccc2[nH]1 | NO
c1ccc2c(Oc3nc(Nc4ccc(N5CCOCC5)cc4)c4ncn(C5CCCCC5)c4n3)cccc2c1 | NO
CS(=O)(=O)CCNCc1ccc(-c2ccc3ncnc(Nc4ccc(OCc5cccc(F)c5)c(Cl)c4)c3c2)o1 | NO
C=CCc1cccc(/C=N/NC(=O)CN2CCN(Cc3ccccc3)CC2)c1O | NO
CCn1c(=O)c2c(nc(/C=C/c3ccc(OC)c(OC)c3)n2C)n(CC)c1=O | NO
CC[C@H](Nc1ncnc2[nH]cnc12)c1nc2cccc(F)c2c(=O)n1-c1ccccc1 | NO
CCC[C@H](NC(=O)/C(C#N)=C/c1cccc(Br)n1)c1ccccc1 | NO
COCC[n+]1c2c(n(Cc3cnccn3)c1C)C(=O)c1ccccc1C2=O | NO
Cc1onc(-c2ccccc2)c1-c1ccc(S(N)(=O)=O)cc1 | NO
CC(C)(C)c1cnc(CSc2cnc(NC(=O)C3CCNCC3)s2)o1 | NO
CC(C)C[C@H](NC(=O)[C@H](Cc1ccccc1)NC(=O)c1cnccn1)B(O)O | NO
Cc1cn(-c2cc(NC(=O)c3ccc(C)c(Nc4nccc(-c5cccnc5)n4)c3)cc(C(F)(F)F)c2)cn1 | NO
C=C(c1ccc(C(=O)O)cc1)c1cc2c(cc1C)C(C)(C)CCC2(C)C | YES
COc1cc2ncnc(Nc3ccc(F)c(Cl)c3)c2cc1OCCCN1CCOCC1 | NO
CC(=O)Nc1cccc(-n2c(=O)n(C3CC3)c(=O)c3c(Nc4ccc(I)cc4F)n(C)c(=O)c(C)c32)c1 | YES
CC[C@]1(O)C[C@H]2CN(CCc3c([nH]c4ccccc34)[C@@](C(=O)OC)(c3cc4c(cc3OC)N(C=O)[C@H]3[C@@](O)(C(=O)OC)[C@H](OC(C)=O)[C@]5(CC)C=CCN6CC[C@]43[C@@H]65)C2)C1 | NO
C[C@]1(c2nc3c(C(N)=O)cccc3[nH]2)CCCN1 | YES
Cc1ccc(F)c(NC(=O)Nc2ccc(-c3cccc4[nH]nc(N)c34)cc2)c1 | NO
Fc1ccc(CNc2ncnc3ccc(F)cc23)cc1 | NO
Cc1nc(Nc2n[nH]c3c2CN(C(=O)N[C@H](CN(C)C)c2ccccc2)C3(C)C)c2sccc2n1 | NO
O=C(NOCC(O)CO)c1cc(Br)c(F)c(F)c1Nc1ccc(I)cc1F (configuration not stated) | YES
OCc1ccc(-c2ccc(-c3ccc(CO)s3)o2)s1 | NO
NC(=O)Nc1sc(-c2ccc(F)cc2)cc1C(N)=O | NO

---

test system: SKBR3; test: relative cell number vs DMSO control (72 h) (% of DMSO); higher = less growth inhibition (more cells); settings: sgRNA knockout: sgNT, 100 nM
Parameter relative cell number: see the listing below.
Measure Name: relative cell number

Compound | Value
COc1cc(Nc2ncc3c(n2)-c2ccc(Cl)cc2C(c2c(F)cccc2OC)=NC3)ccc1C(=O)O | 80.8
Cn1nnc2c(C(N)=O)ncn2c1=O [Temozolomide] | 84.7
Cc1ccc(NC(=O)c2ccc(CN3CCN(C)CC3)cc2)cc1Nc1nc(-c2cccnc2)cs1 | 99.4
O=C1NC(=O)[C@@H](c2cn3c4c(cccc24)CCC3)[C@@H]1c1c[nH]c2ccccc12 [Tivantinib] | 71.1
Cc1c(Cn2c(C)nc3c(C(=O)O)cc(N4CCOCC4)cc32)cccc1C(F)(F)F | 123
CCCS(=O)(=O)Nc1ccc(F)c(C(=O)c2c[nH]c3ncc(Cl)cc23)c1F | 105
C[C@@H](Oc1cc(-c2cnn(C3CCNCC3)c2)cnc1N)c1c(Cl)ccc(F)c1Cl | 98.4
COc1cc([C@@H]2c3cc4c(cc3[C@@H](O[C@@H]3O[C@@H]5CO[C@@H](c6cccs6)O[C@H]5[C@H](O)[C@H]3O)[C@H]3COC(=O)[C@H]23)OCO4)cc(OC)c1O [Teniposide] | 26.4
